Source listed as patent US11149040B2.

What EC50 was measured for each of the following?
- Measured On: human APJ receptor (Homo sapiens (Human), UniProt P35414)
- Sequence (P35414 whole entry): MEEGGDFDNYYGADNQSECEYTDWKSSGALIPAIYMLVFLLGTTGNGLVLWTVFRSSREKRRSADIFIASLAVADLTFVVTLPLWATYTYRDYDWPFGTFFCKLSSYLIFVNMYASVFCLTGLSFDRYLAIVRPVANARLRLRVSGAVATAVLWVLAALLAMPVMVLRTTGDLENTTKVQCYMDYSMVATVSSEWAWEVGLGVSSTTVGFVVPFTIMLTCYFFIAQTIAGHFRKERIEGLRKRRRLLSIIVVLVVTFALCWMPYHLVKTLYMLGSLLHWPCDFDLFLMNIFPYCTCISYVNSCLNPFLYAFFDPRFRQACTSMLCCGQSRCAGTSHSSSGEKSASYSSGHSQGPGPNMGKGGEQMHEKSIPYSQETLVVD
- Protocol Summary: [35S]GTPγS binding assay on membranes from CHO cells stably expressing human APJ receptor
- Assay Setup: read-out: Activity hAPJ SPA EC50 IP
- Procedure: [^35S]GTPγS Binding The human APJ receptor was cloned by polymerase chain reaction and the gene encoding the receptor was subcloned in pFLAG-CMV™-3 expression vector (Sigma, Saint Louis, Mo. USA) in-house at Amgen. […] The optimum experimental conditions for the concentrations of GDP, MgCl2, and NaCl in the assay buffer were initially determined. […] Incubation was at RT for 90 min and the microplate was read using a ViewLux™ ultra HTS Microplate Imager (PerkinElmer, Inc.). […]
Numbers only, in nM.

Use the examples below as a reference point.
1. COC[C@@H]1COc2ccc(F)cc2-c2nnc(NS(=O)(=O)[C@@H](C)[C@@H](OC(C)C)c3ncc(C)cn3)n21 (mixture of isomers) [Example 23.0] | 37
2. COC[C@@H]1COc2ccc(F)cc2-c2nnc(NS(=O)(=O)[C@@H](C)[C@H](OC)c3ncc(C)cn3)n21 (single isomer, unassigned) [Example 28.0] | 170
3. COC[C@@H]1COc2ncccc2-c2nnc(NS(=O)(=O)[C@@H](C)[C@@H](OC(C)C)c3ncc(C)cn3)n21 (mixture of isomers) [Example 32.0] | 140
4. COC[C@@H]1COc2cnccc2-c2nnc(NS(=O)(=O)[C@@H](C)[C@@H](OC(C)C)c3ncc(C)cn3)n21 (single isomer, unassigned) [Example 66.0] | 760

For the next question, use this compound.
// sample CO[C@H](c1ncc(C)cn1)[C@H](C)S(=O)(=O)Nc1nnc2n1[C@H](COC(C)C)COc1ncccc1-2 (single isomer, unassigned) [Example 63.0] , its EC50 was 800

###

- Measured On: human APJ receptor (Homo sapiens (Human), UniProt P35414)
- Protocol Summary: [35S]GTPγS binding assay on membranes from CHO cells stably expressing human APJ receptor
- Assay Setup: read-out: Activity hAPJ SPA EC50 IP
Friendly reminder: EC50 below 20 nM is yes (1), at or above is no (0).

See these solved cases before continuing.
1. COC[C@@H]1COc2ncccc2-c2nnc(NS(=O)(=O)[C@@H](C)[C@@H](OC(C)C)c3ncc(Cl)cn3)n21 (single isomer, unassigned) [Example 44.0] | yes (1)
2. COC[C@@H]1COc2ncccc2-c2nnc(NS(=O)(=O)[C@@H](C)[C@@H](OC(C)C)c3ncc(Cl)cn3)n21 (mixture of isomers) [Example 37.0] | no (0)

Below: the item to evaluate.
Decide: EC50 of CO[C@H](c1ncc(C)cn1)[C@H](C)S(=O)(=O)Nc1nnc2n1[C@H](COC(C)C)COc1ncccc1-2 (mixture of isomers) [Example 56.0] strictly below 20 nM?
no (0)

###

What EC50 was measured for each of the following?
- Measured On: human APJ receptor (Homo sapiens (Human), UniProt P35414)
- Protocol Summary: [35S]GTPγS binding assay on membranes from CHO cells stably expressing human APJ receptor
- Assay Setup: read-out: Activity hAPJ SPA EC50 IP
- Procedure: [^35S]GTPγS Binding The human APJ receptor was cloned by polymerase chain reaction and the gene encoding the receptor was subcloned in pFLAG-CMV™-3 expression vector (Sigma, Saint Louis, Mo. USA) in-house at Amgen. […] The optimum experimental conditions for the concentrations of GDP, MgCl2, and NaCl in the assay buffer were initially determined. […] Incubation was at RT for 90 min and the microplate was read using a ViewLux™ ultra HTS Microplate Imager (PerkinElmer, Inc.). […]
Numbers only, in nM.

Use the examples below as a reference point.
1. COC[C@@H]1COc2c(OC)cccc2-c2nnc(NS(=O)(=O)[C@@H](C)[C@@H](OC(C)C)c3ncc(C)cn3)n21 (mixture of isomers) [Example 33.0] | 15
2. COC[C@@H]1COc2c(OC)cccc2-c2nnc(NS(=O)(=O)[C@@H](C)[C@@H](OC(C)C)c3ncc(C)cn3)n21 (single isomer, unassigned) [Example 39.0] | 8

// sample COC[C@@H]1COc2ccc(F)cc2-c2nnc(NS(=O)(=O)CCc3ncc(C)cn3)n21 (mixture of isomers) [Example 42.0] , its EC50 was 4100
